# study target: T1, hK1 (human tissue kallikrein 1), recombinant (human, UniProt P06870 25-262)
# T1 construct: Expressed in P. pastoris from KLK1 cDNA and purified; enzymatically active; also called KLK1; Recombinant (Pichia) Kallikrein
# test protocol: SPR
measure: koff (s⁻¹)
Field: numeric (s⁻¹). Do not append units.

Use these answered entries as a reference point.
[[record]]
binder = "M0093-G06 (Fab, V domains shown) VH: EVQLLESGGGLVQPGGSLRLSCAASGFTFSNYHMDWVRQAPGKGLEWVSVIGPSGGFTRYADSVKGRFTISRDNSKNTLYLQMNSLRAEDTAVYYCARALGGSLDYWGQGTLVTVSS VL: AQSALTQPRSVSGSLGQSVTISCTGSTSDVGGYTYVSWYQQEPGKAPKLMIHDVSKRPSGVPDRFSGSKSGNTASLIISGLQAEDEADYYCCSYAGSYSYVFGTGTKVTVLG"
assay_result = 0.00313

[[record]]
binder = "M0121-A07 (Fab, V domains shown) VH: EVQLLESGGGLVQPGGSLRLSCAASGFTFSHYLMYWVRQAPGKGLEWVSRIYPSGGATSYADSVKGRFTISRDNSKNTLYLQMNSLRAEDTAVYYCAKSGSWYSFDYWGQGTLVTVSS VL: DIQMTQSPGTLSLSPGERATLSCRASQSVSSNYLAWYQQKPGQAPRLLMYGASYRATGIPDRFSGSGSGTDFTLTISSLQPEDFATYYCQQSYSTPWTFGQGTKVEIKR"
assay_result = 0.00438


Qu. Requested read-out: koff. Entry: M0114-F04 (Fab, V domains shown) VH: EVQLLESGGGLVQPGGSLRLSCAASGFTFSHYYMAWVRQAPGKGLEWVSYISPSGGSTKYADSVKGRFTISRDNSKNTLYLQMNSLRAEDTAMYYCARGGGTGTFDIWGQGTMVTVSS VL: AQSELTQPASVSGSPGQSIAISCTGTSSDIGAYPFVSWYQQHPGKAPKLLIYGVTTRPFGVSDRFSGSKSGSTASLTISGLQAEDEADYYCSSYAGGRNLPYVFGTGTTVTVLG
Ans. 0.0107
